Origin of the recorded values: ChEMBL document CHEMBL4011640

# Tested on: Escherichia coli BW25113
# Method: Inhibition of AcrA efflux pump in Escherichia coli BW25113 assessed as compound concentration required for potentiation of novobiocin-induced antibacterial activity by 4 fold by checkerboard assay
Readout Label: Activity (µM)

| Smiles Code | Unit Descriptor | Relation | Measured Result |
| --- | --- | --- | --- |
| O=C(Nc1cccc(C2=NCCN2)c1)c1ccc(C(=O)Nc2cccc(C3=NCCN3)c2)cc1 | µM | = | 50 |
| O=C(Nc1ccc(C2=NCCN2)cc1)[C@H]1CC[C@H](C(=O)Nc2ccc(C3=NCCN3)cc2)CC1 | µM | > | 400 |
| O=C(Nc1ccc(C2=NCCN2)cc1)c1ccc(C(=O)Nc2ccc(C3=NCCN3)cc2)c(Br)c1 | µM | = | 50 |
| O=C(Cc1ccc(Cl)cc1)Nc1ccc(C2=NCCN2)cc1 | µM | > | 100 |
| Cc1cc(C(=O)Nc2ccc(C3=NCCN3)cc2)ccc1C(=O)Nc1ccc(C2=NCCN2)cc1 | µM | = | 25 |
| O=C(Nc1ccc(C2=NCCN2)cc1)c1ccc2cc(Br)ccc2c1 | µM | = | 25 |

###

# Test system: Escherichia coli BW25113
# Method: Inhibition of AcrA efflux pump in Escherichia coli BW25113 assessed as compound concentration required for potentiation of novobiocin-induced antibacterial activity by 4 fold by checkerboard assay
Measured Activity accompanies every entry in the list below.
Readout Label: Activity

| Smiles Code | Measured Result |
| --- | --- |
| O=C(Nc1ccc(C2=NCCN2)cc1)c1ccc2c(c1)CN(Cc1ccccc1)C2=O | > 200 µM |
| N#Cc1cccc(NC(=O)c2ccc(C(=O)Nc3cccc(C#N)c3)c(Cl)c2)c1 | > 400 µM |
| N#Cc1ccc(NC(=O)c2ccc(C(=O)Nc3ccc(C#N)cc3)c(Cl)c2)cc1 | > 400 µM |
| COC(=O)c1ccc(C(=O)Nc2ccc(C3=NCCN3)cc2)cc1 | > 400 µM |
| O=C(Nc1ccc(-c2ncc[nH]2)cc1)c1ccc(C(=O)Nc2ccc(-c3ncc[nH]3)cc2)c(Cl)c1 | > 400 µM |
| O=C(Nc1ccc(CO)cc1)c1ccc(C(=O)Nc2ccc(CO)cc2)c(Cl)c1 | > 200 µM |
| Cn1cnnc1-c1ccc(NC(=O)c2ccc(C(=O)Nc3ccc(-c4nncn4C)cc3)c(Cl)c2)cc1 | > 400 µM |
| O=C(Nc1ccc(S(=O)(=O)O)cc1)c1ccc(C(=O)Nc2ccc(S(=O)(=O)O)cc2)cc1 | > 100 µM |
